# protocol.description: modulators of LAP4-GFP expression in yeast, primary screen, S. cerevisiae, multiplex flow cytometry (AID 1873)
# settings: 3 h, at 10 µM, stronger effect = higher value
Records with an inconclusive call do not appear.
Binary classification by GFP response vs DMSO, with 80% as an inclusive lower bound for 1 (yes); all other cases are 0 (no).

Here are 4 compounds together with their reported answers.
| compound | assigned.class |
| --- | --- |
| CCNC(=S)N(C)CCc1cc2c(c(OC)c1C=C1C(=O)N(C)C(=O)N(C)C1=O)OCO2 | 1 (yes) |
| O=C1C(=O)c2ccccc2-c2ccccc21 | 0 (no) |
| [N-]=[N+]=NC1C[C@H](n2ccc(=O)[nH]c2=O)O[C@@H]1CO (stereo not given in full) | 1 (yes) |
| O=C1CC[C@@]2(O)[C@H]3Cc4ccc(O)c5c4[C@@]2(CCN3CC2CC2)[C@H]1O5 | 1 (yes) |

Reported GFP response vs DMSO reaches at least 80% for CC12CN3CC(C)(CN(C1)C31CCOCC1)C2=O ?
1 (yes)
